The measured values listed here are drawn from ChEMBL document CHEMBL1122065.

- Test system: Rattus norvegicus
- test: Distribution (percent dose/g of tissue) of radioactivity 24 hr after intravenous administration of [125I]-labeled compound in rat thyroid
- Format: ADME, organism-based, Thyroid gland
- assay.setup: in vivo
In this section we review reported Activity values for a set of compounds.

{"compound": "CC(C)CCCC(C)C1CCC2C3CC=C4CC(OC(=O)CCCc5ccc(I)cc5)CCC4(C)C3CCC12C (stereo not drawn)", "target.of.assay": "Rattus norvegicus", "Activity": "30.09 % dose (g of tissue)-1"}
{"compound": "CC(C)CCCC(C)C1CCC2C3CC=C4CC(OC(=O)Cc5ccc(I)cc5)CCC4(C)C3CCC12C (stereo not drawn)", "target.of.assay": "Rattus norvegicus", "Activity": "27.09 % dose (g of tissue)-1"}

IN: What value of Activity has been reported for the following compound? CC(C)CCCC(C)C1CCC2C3CC=C4CC(OC(=O)c5ccccc5I)CCC4(C)C3CCC12C (stereo not drawn)
OUT: 1.96 % dose (g of tissue)-1

###

- Test system: Rattus norvegicus
- test: Distribution (percent dose/g of tissue) of radioactivity 24 hr after intravenous administration of [125I]-labeled compound in rat blood
- Assay type: ADME, organism-based
- assay.setup: in vivo
measured.property: Activity

The following molecules have reported results that may help.
{"molecule": "CC(C)CCCC(C)C1CCC2C3CC=C4CC(OC(=O)c5ccccc5I)CCC4(C)C3CCC12C (centres undefined)", "Activity": "0.44 % dose (g of tissue)-1"}
{"molecule": "CC(C)CCCC(C)C1CCC2C3CC=C4CC(OC(=O)Cc5ccc(I)cc5)CCC4(C)C3CCC12C (centres undefined)", "Activity": "1.02 % dose (g of tissue)-1"}

IN: What value of Activity has been reported for the following molecule? CC(C)CCCC(C)C1CCC2C3CC=C4CC(OC(=O)CCc5ccc(I)cc5)CCC4(C)C3CCC12C (centres undefined)
OUT: 0.13 % dose (g of tissue)-1

IN: What value of Activity has been reported for the following molecule? CC(C)CCCC(C)C1CCC2C3CC=C4CC(OC(=O)Cc5cccc(I)c5)CCC4(C)C3CCC12C (centres undefined)
OUT: 0.14 % dose (g of tissue)-1

###

- Tested on: Rattus norvegicus
- test: Distribution (percent dose/g of tissue) of radioactivity 24 hr after intravenous administration of [125I]-labeled compound in rat thyroid
- Assay type: ADME, organism-based, Thyroid gland
- assay.setup: in vivo
measured.property: Activity

{"compound": "CC(C)CCCC(C)C1CCC2C3CC=C4CC(OC(=O)c5ccc(I)cc5)CCC4(C)C3CCC12C (stereo not given)", "measured.property": "Activity", "result": "6.92 % dose (g of tissue)-1"}
{"compound": "CC(C)CCCC(C)C1CCC2C3CC=C4CC(OC(=O)Cc5ccccc5I)CCC4(C)C3CCC12C (stereo not given)", "measured.property": "Activity", "result": "46.31 % dose (g of tissue)-1"}
{"compound": "CC(C)CCCC(C)C1CCC2C3CC=C4CC(OC(=O)CCc5ccc(I)cc5)CCC4(C)C3CCC12C (stereo not given)", "measured.property": "Activity", "result": "67.52 % dose (g of tissue)-1"}
{"compound": "CC(C)CCCC(C)C1CCC2C3CC=C4CC(OC(=O)c5cccc(I)c5)CCC4(C)C3CCC12C (stereo not given)", "measured.property": "Activity", "result": "7.3 % dose (g of tissue)-1"}

IN: What value of Activity has been reported for the following compound? CC(C)CCCC(C)C1CCC2C3CC=C4CC(OC(=O)Cc5cccc(I)c5)CCC4(C)C3CCC12C (stereo not given)
OUT: 32.62 % dose (g of tissue)-1

###

- Tested on: Rattus norvegicus
- test: Distribution (percent dose/g of tissue) of radioactivity 24 hr after intravenous administration of [125I]-labeled compound in rat ovary
- Format: ADME, organism-based, Female gonad
- assay.setup: in vivo
In this section we review reported Activity values for a set of molecules.

The following molecules have reported results that may help.
{"molecule": "CC(C)CCCC(C)C1CCC2C3CC=C4CC(OC(=O)c5ccc(I)cc5)CCC4(C)C3CCC12C (stereo not given)", "Activity": "6.21 % dose (g of tissue)-1"}
{"molecule": "CC(C)CCCC(C)C1CCC2C3CC=C4CC(OC(=O)Cc5cccc(I)c5)CCC4(C)C3CCC12C (stereo not given)", "Activity": "5.05 % dose (g of tissue)-1"}
{"molecule": "CC(C)CCCC(C)C1CCC2C3CC=C4CC(OC(=O)c5ccccc5I)CCC4(C)C3CCC12C (stereo not given)", "Activity": "13.68 % dose (g of tissue)-1"}
{"molecule": "CC(C)CCCC(C)C1CCC2C3CC=C4CC(OC(=O)CCc5ccc(I)cc5)CCC4(C)C3CCC12C (stereo not given)", "Activity": "1.35 % dose (g of tissue)-1"}
{"molecule": "CC(C)CCCC(C)C1CCC2C3CC=C4CC(OC(=O)c5cc(I)cc(I)c5I)CCC4(C)C3CCC12C (stereo not given)", "Activity": "16.19 % dose (g of tissue)-1"}
{"molecule": "CC(C)CCCC(C)C1CCC2C3CC=C4CC(OC(=O)c5cccc(I)c5)CCC4(C)C3CCC12C (stereo not given)", "Activity": "15.7 % dose (g of tissue)-1"}
{"molecule": "CC(C)CCCC(C)C1CCC2C3CC=C4CC(OC(=O)CCCc5ccc(I)cc5)CCC4(C)C3CCC12C (stereo not given)", "Activity": "3.23 % dose (g of tissue)-1"}
{"molecule": "CC(C)CCCC(C)C1CCC2C3CC=C4CC(OC(=O)c5cc(I)c(I)c(I)c5)CCC4(C)C3CCC12C (stereo not given)", "Activity": "12.53 % dose (g of tissue)-1"}
{"molecule": "CC(C)CCCC(C)C1CCC2C3CC=C4CC(OC(=O)Cc5ccc(I)cc5)CCC4(C)C3CCC12C (stereo not given)", "Activity": "2.32 % dose (g of tissue)-1"}

Now for a further molecule.
IN: What value of Activity has been reported for the following molecule? CC(C)CCCC(C)C1CCC2C3CC=C4CC(OC(=O)Cc5ccccc5I)CCC4(C)C3CCC12C (stereo not given)
OUT: 5.97 % dose (g of tissue)-1

###

- System: Rattus norvegicus
- test: Distribution (percent dose/g of tissue) of radioactivity 24 hr after intravenous administration of [125I]-labeled compound in rat blood
- Format: ADME, organism-based
- assay.setup: in vivo
measured.property: Activity

The following compounds have reported results that may help.
{"compound": "CC(C)CCCC(C)C1CCC2C3CC=C4CC(OC(=O)c5cc(I)c(I)c(I)c5)CCC4(C)C3CCC12C (centres undefined)", "Activity": "0.54 % dose (g of tissue)-1"}
{"compound": "CC(C)CCCC(C)C1CCC2C3CC=C4CC(OC(=O)c5cc(I)cc(I)c5I)CCC4(C)C3CCC12C (centres undefined)", "Activity": "0.57 % dose (g of tissue)-1"}
{"compound": "CC(C)CCCC(C)C1CCC2C3CC=C4CC(OC(=O)CCCc5ccc(I)cc5)CCC4(C)C3CCC12C (centres undefined)", "Activity": "0.87 % dose (g of tissue)-1"}

Now for a further compound.
IN: What value of Activity has been reported for the following compound? CC(C)CCCC(C)C1CCC2C3CC=C4CC(OC(=O)Cc5ccccc5I)CCC4(C)C3CCC12C (centres undefined)
OUT: 0.21 % dose (g of tissue)-1

###

In this section we review reported Activity values for a set of compounds.
- System: Rattus norvegicus
- test: Distribution (percent dose/g of tissue) of radioactivity 24 hr after intravenous administration of [125I]-labeled compound in rat liver
- Assay type: ADME, organism-based
- assay.setup: in vivo

{"compound": "CC(C)CCCC(C)C1CCC2C3CC=C4CC(OC(=O)Cc5ccccc5I)CCC4(C)C3CCC12C (stereo not given)", "Activity": "3.99 % dose (g of tissue)-1"}
{"compound": "CC(C)CCCC(C)C1CCC2C3CC=C4CC(OC(=O)Cc5cccc(I)c5)CCC4(C)C3CCC12C (stereo not given)", "Activity": "2.11 % dose (g of tissue)-1"}
{"compound": "CC(C)CCCC(C)C1CCC2C3CC=C4CC(OC(=O)Cc5ccc(I)cc5)CCC4(C)C3CCC12C (stereo not given)", "Activity": "1.25 % dose (g of tissue)-1"}
{"compound": "CC(C)CCCC(C)C1CCC2C3CC=C4CC(OC(=O)CCCc5ccc(I)cc5)CCC4(C)C3CCC12C (stereo not given)", "Activity": "0.36 % dose (g of tissue)-1"}
{"compound": "CC(C)CCCC(C)C1CCC2C3CC=C4CC(OC(=O)CCc5ccc(I)cc5)CCC4(C)C3CCC12C (stereo not given)", "Activity": "0.42 % dose (g of tissue)-1"}
{"compound": "CC(C)CCCC(C)C1CCC2C3CC=C4CC(OC(=O)c5cc(I)c(I)c(I)c5)CCC4(C)C3CCC12C (stereo not given)", "Activity": "4.8 % dose (g of tissue)-1"}
{"compound": "CC(C)CCCC(C)C1CCC2C3CC=C4CC(OC(=O)c5ccc(I)cc5)CCC4(C)C3CCC12C (stereo not given)", "Activity": "3.28 % dose (g of tissue)-1"}
{"compound": "CC(C)CCCC(C)C1CCC2C3CC=C4CC(OC(=O)c5cc(I)cc(I)c5I)CCC4(C)C3CCC12C (stereo not given)", "Activity": "5.11 % dose (g of tissue)-1"}

IN: What value of Activity has been reported for the following compound? CC(C)CCCC(C)C1CCC2C3CC=C4CC(OC(=O)c5cccc(I)c5)CCC4(C)C3CCC12C (stereo not given)
OUT: 5.03 % dose (g of tissue)-1

IN: What value of Activity has been reported for the following compound? CC(C)CCCC(C)C1CCC2C3CC=C4CC(OC(=O)c5ccccc5I)CCC4(C)C3CCC12C (stereo not given)
OUT: 5.18 % dose (g of tissue)-1
